# assay.procedure: chemical genetic growth profiling, strain panel (AID 1159580);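 further: tested at 20 µM; growth read once vehicle control cultures reached saturation at 30 °C; 1 = growth at the plate median or of vehicle wells; lower values mean less growth of the strain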
# details: S. cerevisiae deletion strains, growth OD, locus YCL016C, strain dcc1, active compounds read low
The whole screen tested about 5,500 compounds, of which about 2,000 (36%) were called active. Roughly 18% stayed inconclusive and do not appear here. The list shows a part of the results.

molecule: Cc1cccc(C)c1NC(=O)C1CCCCN1C (configuration not stated)
normalized growth: 0.995

molecule: CC(C)c1nc(N(C)S(C)(=O)=O)nc(-c2ccc(F)cc2)c1/C=C/[C@@H](O)C[C@@H](O)CC(=O)O
normalized growth: 0.998

molecule: CC(=O)O[C@@H]1CC2C(C)(C)C(=O)C3OC3[C@]2(C)C2CC[C@@]3(C)[C@H](c4ccoc4)OC(=O)C4OC43[C@@]21C (some centres not stated)
normalized growth: 0.991

molecule: NC(N)=NCCCCN=C(N)N
normalized growth: 1.01

molecule: CC(C)/C(O)=C1/C(=O)O[C@@H](c2ccoc2)[C@]2(C)C(O)[C@@H](O)[C@@]34OC5(C)OC67CC(C)(C(O)[C@]6(O)[C@@H](O)[C@]3(O5)C12)[C@H](CC(=O)O)[C@]74C (some centres not stated)
normalized growth: 0.982

molecule: CN1CCC[C@@H]1CCO[C@](C)(c1ccccc1)c1ccc(Cl)cc1
normalized growth: 0.968

molecule: COC(=O)[C@@H]1OC(=O)C2OC23[C@@]1(C)CCC1[C@@]2(C)CCC(=O)C(C)(C)C2C[C@@H](OC(C)=O)[C@]13C (some centres not stated)
normalized growth: 1.02

molecule: COC(=O)[C@@H]1OC(=O)C2OC23[C@@]1(C)CCC1[C@]2(C)C(C[C@@H](O)[C@]13C)C(C)(C)[C@H](OC(C)=O)C[C@@H]2OC(C)=O (some centres not stated)
normalized growth: 1

molecule: COc1cc2c(cc1OC)C1(O)C(=O)c3ccc(O)c(C(=O)O)c3OC1CO2 (configuration not stated)
normalized growth: 0.98

molecule: CC(=O)O[C@H]1CC[C@@]2(C)C(C[C@@H](OC(C)=O)[C@]3(C)C2CC[C@@]2(C)[C@H](c4ccoc4)OC(=O)[C@H]4O[C@]423)C1(C)C (some centres not stated)
normalized growth: 1

molecule: Cc1oncc1C(=O)Nc1ccc(C(F)(F)F)cc1
normalized growth: 0.981

molecule: CC1(C)C(=O)[C@@H]2O[C@@H]2[C@@]2(C)C1C[C@@H](O)[C@]1(C)C2CC[C@@]2(C)[C@H](c3ccoc3)OC(=O)C3OC321 (some centres not stated)
normalized growth: 0.997

molecule: NCCCCC(=O)O
normalized growth: 1.01

molecule: C[C@]12C=CC(=O)C=C1CCC1C2[C@@H](O)C[C@@]2(C)C1CC[C@]2(O)C(=O)CO (some centres not stated)
normalized growth: 0.988

molecule: COc1ccc2c(c1)OCC(Cc1ccc(OC)c(OC)c1)C2=O (configuration not stated)
normalized growth: 0.969

molecule: NCCCNCCSP(=O)(O)O
normalized growth: 0.982

molecule: COC(=O)[C@H](c1ccccc1Cl)N1CCc2sccc2C1
normalized growth: 0.993

---

# assay.procedure: chemical genetic growth profiling, strain panel (AID 1159580);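 further: tested at 20 µM; growth read once vehicle control cultures reached saturation at 30 °C; 1 = growth at the plate median or of vehicle wells; lower values mean less growth of the strain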
# details: S. cerevisiae deletion strains, growth OD, locus YBR229C, strain ROT2, active compounds read low
In all, about 5,500 compounds went through this assay and about 2,000 (36%) were called active. Another 18% or so got no clear call; they are omitted. This is one part of the list.
Measured normalized growth values are reported for all entries that follow.

compound: FC(F)(F)c1cc(Cl)c2nsnc2c1
normalized growth: 0.993

compound: Brc1cccc(C=NCc2ccccc2)c1
normalized growth: 0.843

compound: CC(=O)OC1CC(O)C(C)(C)C2CC(=O)C3(C)C(CCC4(C)C(c5ccoc5)OC(=O)C5OC543)C12C (stereo not given)
normalized growth: 0.994

compound: O=S(=O)(NCC1CC1)c1ccc(F)c(Cl)c1
normalized growth: 1

compound: OCc1nccn1Cc1ccc(Cl)cc1
normalized growth: 1

compound: NC(C(=O)O)C(O)C(=O)O (stereo not given)
normalized growth: 1.01

compound: CC(C)=CC1C(C(=O)OCc2cccc(Oc3ccccc3)c2)C1(C)C (stereo not given)
normalized growth: 0.947

compound: Cc1cc2c3c(c1)c(O)cc(=O)n3CCC2
normalized growth: 0.989

compound: COC1=CC(=O)OC(CCc2ccc(OC)c(OC)c2)C1 (stereo not given)
normalized growth: 1.01

compound: C[C@]12C=CC(=O)C=C1CCC1C2[C@@H](O)C[C@@]2(C)C1CC[C@]2(O)C(=O)CO (stereo not given in full)
normalized growth: 0.99

compound: COc1cc2c(cc1OC)C1(O)C(=O)c3ccc(O)c(C(=O)O)c3OC1CO2 (stereo not given)
normalized growth: 1.01

compound: O=c1cccc2n1CC1CC2CN2CCCC[C@@H]12 (stereo not given in full)
normalized growth: 0.953

compound: COc1ccc2c(c1)OCC(Cc1ccc(OC)c(O)c1)C2=O (stereo not given)
normalized growth: 0.98

compound: O=S(=O)(NCc1ccc(F)cc1F)c1cccc(C(F)(F)F)c1
normalized growth: 0.98

compound: CN=C(N)NCCCC(N)C(=O)O (stereo not given)
normalized growth: 1.01

compound: O=C(O)COc1ccc(Cl)cc1Cl
normalized growth: 0.999

compound: CCCCCCCCCCCC(=O)OCC(COP(=O)(O)OCC(O)COP(=O)(O)OCC(COC(=O)CCCCCCCCCCC)OC(=O)CCCCCCCCCCC)OC(=O)CCCCCCCCCCC (stereo not given)
normalized growth: 0.967

compound: NC(=O)NC1NC(=O)NC1=O (stereo not given)
normalized growth: 0.987

compound: COc1ccc2c(c1)OCC(Cc1ccc(OC)c(OC)c1)C2=O (stereo not given)
normalized growth: 0.993

compound: NC(N)=NCCN1CCCCCCC1
normalized growth: 1

compound: NC1(C(=O)O)CCCC1
normalized growth: 1.01

compound: CC(=O)O[C@@H]1CC2C(C)(C)[C@H](O)CC[C@]2(C)C2CC[C@@]3(C)[C@H](c4ccoc4)OC(=O)[C@H]4O[C@]43[C@@]21C (stereo not given in full)
normalized growth: 0.996

compound: N[C@@H](C(=O)O)[C@@H](O)[C@H](O)[C@H](O)CO
normalized growth: 1

compound: O=S(=O)(c1ccc(Cl)cc1)c1cc(C(F)(F)F)cc(C(F)(F)F)c1
normalized growth: 0.983

compound: Nc1ccc(Oc2ccc(Cl)cc2C2CCCCC2)nc1
normalized growth: 0.821

Hey, just so you know, these numbers are from PubChem BioAssay AID1159580.
